# assay_overview: Rat pharmacokinetics
# Assay type: in vivo, Sprague-Dawley rats
# condition_summary: male, Sprague-Dawley, whole blood and plasma, intravenous, 1 mg/kg, time 4 h
reported_endpoint: blood plasma ratio at 4 h
Give bare numbers.

Reported blood plasma ratio at 4 h for CC(C)c1nn([C@@H]2O[C@H](COS(N)(=O)=O)[C@@H](O)[C@H]2O)c2ncnc(N)c12 [ML471] was 48.9

###

# assay_overview: Rat pharmacokinetics
# Assay type: in vivo, Sprague-Dawley rats
# condition_summary: male, Sprague-Dawley, PO 25 mg/kg, plasma, read-out: %F
reported_endpoint: bioavailability (%)
Numbers only, in %.

Reported bioavailability for "CC(C)c1nn([C@@H]2O[C@H](COS(N)(=O)=O)[C@@H](O)[C@H]2O)c2ncnc(N)c12" was 16.4

###

# assay_overview: Blood exposure in the P. falciparum infected SCID mouse model
# Type: in vivo, NODscidIL2Rγ^null mice engrafted with human RBCs
# condition_summary: female, NODscidIL2Rγ^null, mouse, whole blood, po, 100 mg/kg, 1 x 100 mg/kg p.o., mice M1, M2, read-out: Tmax (individual mice)
reported_endpoint: Tmax (h)
Numbers only, in h.

Reported Tmax for "CC(C)c1nn([C@@H]2O[C@H](COS(N)(=O)=O)[C@@H](O)[C@H]2O)c2ncnc(N)c12" was 4

###

# assay_overview: Rat pharmacokinetics
# Assay type: in vivo, Sprague-Dawley rats
# condition_summary: male, Sprague-Dawley, plasma, iv, 1 mg/kg, IV 1 mg/kg, plasma, read-out: Vz
reported_endpoint: Vd (L/kg)
One number for each entry, in L/kg.

Reported Vd for "CC(C)c1nn([C@@H]2O[C@H](COS(N)(=O)=O)[C@@H](O)[C@H]2O)c2ncnc(N)c12" was 12.3

###

# assay_overview: Rat pharmacokinetics
# Format: in vivo, Sprague-Dawley rats
# condition_summary: male, Sprague-Dawley, PO 25 mg/kg, plasma, read-out: T1/2z (converted)
reported_endpoint: half-life (h)
Numbers only, in h.

Reported half-life for "CC(C)c1nn([C@@H]2O[C@H](COS(N)(=O)=O)[C@@H](O)[C@H]2O)c2ncnc(N)c12" was 3.57

###

# assay_overview: Blood exposure in the P. falciparum infected SCID mouse model
# Format: in vivo, NODscidIL2Rγ^null mice engrafted with human RBCs
# condition_summary: female, NODscidIL2Rγ^null, mouse, whole blood, po, 50 mg/kg, 4 days x 50 mg/kg p.o., mice M1, M2, read-out: Cmax (individual mice)
reported_endpoint: Cmax (ng/mL)
Answers are plain numbers, in ng/mL.

Reported Cmax for "CC(C)c1nn([C@@H]2O[C@H](COS(N)(=O)=O)[C@@H](O)[C@H]2O)c2ncnc(N)c12" was 888

###

# assay_overview: Rat pharmacokinetics
# Type: in vivo, Sprague-Dawley rats
# condition_summary: male, Sprague-Dawley, PO 1 mg/kg, plasma, read-out: T1/2z (converted)
reported_endpoint: half-life (h)
Give bare numbers, in h.

Reported half-life for "CC(C)c1nn([C@@H]2O[C@H](COS(N)(=O)=O)[C@@H](O)[C@H]2O)c2ncnc(N)c12" was 8.78

###

# assay_overview: Rat pharmacokinetics
# Format: in vivo, Sprague-Dawley rats
# condition_summary: male, Sprague-Dawley, whole blood, IV 1 mg/kg, blood
# Description: Sprague-Dawley rats (11 weeks old) were sourced from Hilltop Lab Animals, Inc (Scottdale, Pennsylvania, USA). […] Samples were precipitated with 0.5% formic acid in methanol and the supernatants were analysed by positive ion electrospray LC-MS for the administered compound. Non-compartmental pharmacokinetic parameters were calculated from individual concentration vs time profiles using Phoenix 64 WinNonlin (Version 8.1 Certara, Princeton NJ).
reported_endpoint: clearance (L/h/kg)
Give bare numbers, in L/h/kg.

Reported clearance for "CC(C)c1nn([C@@H]2O[C@H](COS(N)(=O)=O)[C@@H](O)[C@H]2O)c2ncnc(N)c12" was 0.138
